- studyTarget: PAR2 (HT-29 cells, trypsin activation) (Homo sapiens, UniProt P55085)
- Construct: host or cells: HT-29 cells
- Sequence (P55085 26-397): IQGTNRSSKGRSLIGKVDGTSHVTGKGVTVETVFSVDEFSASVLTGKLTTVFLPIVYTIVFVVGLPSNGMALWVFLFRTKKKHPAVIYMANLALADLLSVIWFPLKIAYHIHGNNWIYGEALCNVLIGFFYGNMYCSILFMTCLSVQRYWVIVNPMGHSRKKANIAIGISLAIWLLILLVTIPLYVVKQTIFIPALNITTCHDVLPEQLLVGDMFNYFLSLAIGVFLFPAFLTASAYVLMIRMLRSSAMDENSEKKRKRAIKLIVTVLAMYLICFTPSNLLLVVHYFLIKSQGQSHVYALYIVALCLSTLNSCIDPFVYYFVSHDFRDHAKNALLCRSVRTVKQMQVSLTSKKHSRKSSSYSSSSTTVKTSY
- testMethodNotes: Ca FLIPR TETRA assay, ANTAGONIST mode, stimulation with 3.1 U/mL trypsin
- Format: cell-based
- testContext: HT-29 cells, antagonist mode, stimulation with 3.1 U/mL trypsin
Each entry below lists one item and its recorded IC50 value.
measurementType: IC50

>>> print(df.to_string())
                                   compound  measurementtype   result
0  Cc1n[nH]c(C(=O)N2CCN(C(=O)c3cn4nc(-c5ccc(F)cc5)cc(C(C)(C)C)c4n3)CC2)n1             IC50   247 nM
1  CC(C)(C)c1cc(-c2ccc(F)cc2)nn2cc(C(=O)N3CCN(C4CC4)C(=O)C3(C)C)nc12             IC50   0.8 nM
2  CC(C)c1cc(-c2ccc(C(F)(F)F)cc2)nn2cc(C(=O)N3CCN(C(=O)C4CC(C)(O)C4)CC3(C)C)nc12 (stereo not drawn)             IC50   1.6 nM
3  Cc1ccc(-c2cc(C(C)C)c3nc(C(=O)N4CCN(C(=O)c5nnc(C)o5)CC4(C)C)cn3n2)cc1             IC50  11.5 nM
4  Cc1cc(C(=O)N2CCN(C(=O)c3cn4nc(-c5ccc(F)cc5)cc(C(C)(F)F)c4n3)C(C)(C)C2)[nH]n1             IC50     7 nM
5  CC(C)(C)c1cc(-c2ccc(Cl)cc2)nn2cc(C(=O)N3CCN(C(=O)C4CC(C(=O)O)C4)CC3(C)C)nc12 (stereo not drawn)             IC50   0.9 nM

All figures here come from patent US20190119282A1.
